# Study target: ERβ (Homo sapiens, UniProt Q92731)
# Sequence (Q92731 whole entry): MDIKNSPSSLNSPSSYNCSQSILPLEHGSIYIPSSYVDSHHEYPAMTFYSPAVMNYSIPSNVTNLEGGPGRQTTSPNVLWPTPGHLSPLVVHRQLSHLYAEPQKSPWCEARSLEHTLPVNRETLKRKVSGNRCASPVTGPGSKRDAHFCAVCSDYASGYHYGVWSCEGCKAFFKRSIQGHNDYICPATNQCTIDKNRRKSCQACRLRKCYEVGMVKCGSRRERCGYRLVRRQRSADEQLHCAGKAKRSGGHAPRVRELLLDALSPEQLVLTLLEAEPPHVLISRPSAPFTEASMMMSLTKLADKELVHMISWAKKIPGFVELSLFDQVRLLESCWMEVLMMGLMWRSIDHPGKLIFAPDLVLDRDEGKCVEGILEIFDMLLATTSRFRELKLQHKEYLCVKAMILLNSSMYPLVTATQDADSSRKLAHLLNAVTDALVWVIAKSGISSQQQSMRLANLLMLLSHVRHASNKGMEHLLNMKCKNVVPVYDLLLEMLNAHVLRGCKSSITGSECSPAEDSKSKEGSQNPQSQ
# Protocol notes: ERβ luciferase reporter (pERE2TATA-LUC) transactivation assay in transfected HEK293 cells
# Format: cell-based
# Set-up: expressed in transfected cells; host or cells: HEK293
# Condition set: HEK293, 24 h, read-out: ERβ receptor activation relative to 10 nM E2 corresponding 100, Table 1, sample concentration 10 μM, mean of at least three independent transfections, SEM typically <15%
Reported metric: Emax at 10 µM (%)

[[record]]
compound = "CC(O)(CC(=O)CCCc1ccccc1)c1ccccc1 (stereo not drawn) [Compound 36ab, 6-Hydroxy-1,6-diphenyl-heptan-4-one]"
readout_value = 15.1


[I] COC(CC(=O)CCc1ccccc1)Cc1ccc2ccccc2c1 (stereo not drawn) [Compound 50ab]
[II] O=C(Cc1cccc(F)c1)CC(O)CCc1ccccc1 (stereo not drawn) [Compound 21ab]
Smaller Emax at 10 µM value? Options are I and II Answer by quoting the chosen item's label. I
(I: 12.4%, II: 21.1%)

====

# Study target: ERα (Homo sapiens, UniProt P03372)
# Sequence (P03372 1-595): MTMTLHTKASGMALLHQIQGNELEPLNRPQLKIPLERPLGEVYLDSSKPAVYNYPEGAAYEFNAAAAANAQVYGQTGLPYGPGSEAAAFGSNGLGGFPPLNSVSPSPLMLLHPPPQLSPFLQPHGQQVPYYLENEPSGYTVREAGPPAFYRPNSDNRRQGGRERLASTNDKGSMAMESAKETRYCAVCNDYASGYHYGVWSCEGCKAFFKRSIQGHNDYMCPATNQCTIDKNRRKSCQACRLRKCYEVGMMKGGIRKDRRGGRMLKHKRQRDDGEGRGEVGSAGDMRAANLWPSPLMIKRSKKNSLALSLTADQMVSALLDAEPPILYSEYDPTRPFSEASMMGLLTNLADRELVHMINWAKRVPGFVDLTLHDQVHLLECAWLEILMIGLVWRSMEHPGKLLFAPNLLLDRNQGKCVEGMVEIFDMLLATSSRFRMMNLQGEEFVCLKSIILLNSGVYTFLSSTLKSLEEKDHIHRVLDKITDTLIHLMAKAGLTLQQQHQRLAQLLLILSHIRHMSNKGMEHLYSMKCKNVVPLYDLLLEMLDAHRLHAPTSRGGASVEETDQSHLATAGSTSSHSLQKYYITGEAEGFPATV
# Protocol notes: Competitive binding assay against [6,7-3H(N)]estradiol in transiently transfected COS-1 cells, ERα
# Condition set: ERα IC50 (median inhibition concentration), competition against labeled E2, COS-1 cells with pSG5-hERα, 2 hours at 37° C.
pIC50: −log10 of the molar value.
Reported metric: pIC50

Here are 5 compounds together with their reported answers.
[[record]]
compound = "O=C(CCCc1ccc(O)cc1)CC(O)c1ccccc1 (single isomer, unassigned) [Compound 34b]"
readout_value = 8.67

[[record]]
compound = "O=C(CCCc1ccccc1)CC(O)c1ccccc1 (single isomer, unassigned) [Compound 59b, 1-Hydroxy-1,6-diphenyl-hexan-3-one]"
readout_value = 5.66

[[record]]
compound = "O=C(CCc1ccc(O)cc1)CC(O)Cc1ccccc1 (stereo not shown) [Compound 31ab]"
readout_value = 5.10

[[record]]
compound = "O=C(CCCc1ccc(O)cc1)CC(O)c1ccccc1 (single isomer, unassigned) [Compound 34a]"
readout_value = 9.05

[[record]]
compound = "CC(O)(CC(=O)CCCc1ccccc1)c1ccccc1 (stereo not shown) [Compound 36ab, 6-Hydroxy-1,6-diphenyl-heptan-4-one]"
readout_value = 6.09


[P] O=C(CCCc1ccc(O)cc1)CC(O)Cc1ccccc1 (stereo not shown) [Compound 40ab]
[Q] O=C(CCCc1ccccc1)CC(O)c1ccccc1 (single isomer, unassigned) [Compound 59a, 1-Hydroxy-1,6-diphenyl-hexan-3-one]
Parameter check: reported pIC50 is higher for which label, P or Q ? Answer by quoting the chosen item's label. P

====

# Study target: ERβ (Homo sapiens, UniProt Q92731)
# Protocol notes: Competitive binding assay against [6,7-3H(N)]estradiol in transiently transfected COS-1 cells, ERβ
# Condition set: in comparison to E2 = 100
Reported metric: ERβ RBA (relative binding affinity) (%)

[A] O=C(CCCc1ccccc1)CC(O)c1ccccc1 (single isomer, unassigned) [Compound 59b, 1-Hydroxy-1,6-diphenyl-hexan-3-one]
[B] O=C(CCCc1ccc(O)cc1)CC(O)Cc1ccccc1 (stereo not shown) [Compound 40ab]
Parameter check: reported ERβ RBA (relative binding affinity) is higher for which label, A or B ? Answer by quoting the chosen item's label. B
(B: 0.181%, A: 0.018%)

[a] O=C(CCCc1ccccc1)CC(O)c1ccccc1 (single isomer, unassigned) [Compound 59a, 1-Hydroxy-1,6-diphenyl-hexan-3-one]
[b] CC(O)(CC(=O)CCCc1ccccc1)c1ccccc1 (stereo not shown) [Compound 36ab, 6-Hydroxy-1,6-diphenyl-heptan-4-one]
Parameter check: reported ERβ RBA (relative binding affinity) is higher for which label, a or b ? Answer by quoting the chosen item's label. a
(a: 0.180%, b: 0.096%)

[A] O=C(CCCc1ccc(O)cc1)CC(O)c1ccccc1 (single isomer, unassigned) [Compound 34a]
[B] O=C(CCCc1ccc(O)cc1)CC(O)c1ccccc1 (single isomer, unassigned) [Compound 34b]
[C] O=C(CCc1ccc(O)cc1)CC(O)Cc1ccccc1 (stereo not shown) [Compound 31ab]
Order the records by ERβ RBA (relative binding affinity), with each subsequent value no larger than the one before. Lab note: final answer is the ordered label list. A, B, C

====

# Study target: ERβ (Homo sapiens)
# Protocol notes: Competitive binding assay against [6,7-3H(N)]estradiol in transiently transfected COS-1 cells, ERβ
# Condition set: ERβ IC50 (median inhibition concentration), competition against labeled E2, COS-1 cells with pSG5-hERβ, 2 hours at 37° C.
Reported metric: IC50 (µM)

[[record]]
compound = "O=C(CCCc1ccccc1)CC(O)c1ccccc1 (single isomer, unassigned) [Compound 59a, 1-Hydroxy-1,6-diphenyl-hexan-3-one]"
quantity_unit = "µM"
readout_value = 1.09


[1] CC(O)(CC(=O)CCCc1ccccc1)c1ccccc1 (stereo not shown) [Compound 36ab, 6-Hydroxy-1,6-diphenyl-heptan-4-one]
[2] O=C(CCc1ccc(O)cc1)CC(O)Cc1ccccc1 (stereo not shown) [Compound 31ab]
[3] O=C(CCCc1ccccc1)CC(O)c1ccccc1 (single isomer, unassigned) [Compound 59b, 1-Hydroxy-1,6-diphenyl-hexan-3-one]
[4] O=C(CCCc1ccc(O)cc1)CC(O)c1ccccc1 (single isomer, unassigned) [Compound 34a]
Please put the entries in order of rising IC50. Lab note: final answer is the ordered label list. 4, 2, 1, 3

[1] O=C(CCCc1ccc(O)cc1)CC(O)Cc1ccccc1 (stereo not shown) [Compound 40ab]
[2] O=C(CCCc1ccc(O)cc1)CC(O)c1ccccc1 (single isomer, unassigned) [Compound 34b]
Parameter check: reported IC50 is higher for which label, 1 or 2 ? Answer by quoting the chosen item's label. 1
(1: 1.08 µM, 2: 0.0105 µM)

====

# Study target: UniProt Q92731
# Protocol notes: ERβ luciferase reporter (pERE2TATA-LUC) transactivation assay in transfected HEK293 cells
# Format: cell-based
# Design: expressed in transfected cells; host or cells: HEK293
# Condition set: HEK293, 24 h, read-out: ERβ receptor activation relative to 10 nM E2 corresponding 100, Table 1, sample concentration 10 μM, mean of at least three independent transfections, SEM typically <15%
Reported metric: Emax at 10 µM (%)

[[record]]
compound = "O=C(CCc1ccccc1)CC(O)Cc1ccc(O)cc1 (centres unmarked) [Compound 25ab]"
study_target = "UniProt Q92731"
readout_value = 6.1


[I] O=C(Cc1ccccc1)CC(O)c1cccc(O)c1 (centres unmarked) [Compound 19ab]
[II] O=C(CCc1ccccc1)CC(O)Cc1cccc2ccccc12 (centres unmarked) [Compound 27ab]
[III] O=C(CCc1ccccc1)CC(O)Cc1ccc(F)cc1 (centres unmarked) [Compound 26ab]
[IV] O=C(CCc1ccccc1O)CC(O)Cc1ccc(F)cc1 (centres unmarked) [Compound 32ab]
Please put the entries in order of rising Emax at 10 µM. Lab note: final answer is the ordered label list. II, III, I, IV
(II: 1.7%, III: 3.9%, I: 7.7%, IV: 11.1%)

====

# Study target: ERβ (Homo sapiens, UniProt Q92731)
# Protocol notes: ERβ luciferase reporter (pERE2TATA-LUC) transactivation assay in transfected HEK293 cells
# Assay type: cell-based
# Design: expressed in transfected cells; host or cells: HEK293
# Condition set: HEK293, 24 h, read-out: ERβ receptor activation relative to 10 nM E2 corresponding 100, Table 1, sample concentration 10 μM, mean of at least three independent transfections, SEM typically <15%
# Experimental: All other reagents were of reagent grade from Sigma or Fluka. One day before transfection, HEK293 cells were seeded in 48-well plates (70×10^3 cells per well) in phenol-free Dulbecco's modified Eagle medium supplemented with 5% delipidated fetal bovine serum (Sigma) and antibiotics. […] After 24 hours, the cells were washed, lysed and luciferase and β-galactosidase activities were determined from 20 μl of lysates with the Victor^2TM reader (PerkinElmer Wallac, Turku, Finland). […]
Reported metric: Emax at 10 µM (%)

[[record]]
compound = "O=C(CCc1ccccc1O)CC(O)Cc1ccccc1 (stereo not drawn) [Compound 30ab]"
reported_metric = "Emax at 10 µM"
quantity_unit = "%"
readout_value = 5.1


[P] COC(CC(=O)CCc1ccccc1)Cc1cccc2ccccc12 (stereo not drawn) [Compound 49ab]
[Q] CC(O)(CC(=O)CCCc1ccc(O)cc1)c1ccccc1 (stereo not drawn) [Compound 37ab]
Smaller Emax at 10 µM value? Options are P and Q Answer by quoting the chosen item's label. P
(P: 2%, Q: 103%)

meta.source: patent US20100249243A1
